# test.protocol: Acute toxicity (DL50) in the mouse
# Format: in vivo
# test.conditions: in vivo, iv, iv (Table 1), read-out: DL50 value
Where a name gives a salt, the structure may show the parent alone.
Hi! Just check whether LD50 is below 1000 mg/kg. Below gives class 1, equal or above gives class 0.

Record O=C(N[C@H](Cc1c[nH]c2ccccc12)C(=O)O)OCc1ccc(Cl)cc1 [Ex. 5 (CR630), N-p-chloro-carbobenzoxy-D-tryptophane] : is its LD50 strictly below 1000 mg/kg? class 1

Record O=C(N[C@@H](Cc1c[nH]c2ccccc12)C(=O)O)OCc1cccc(Cl)c1 [Ex. 2 (CR527), N-m-chloro-carbobenzoxy-L-tryptophane] : is its LD50 strictly below 1000 mg/kg? class 1

Record COc1ccc(COC(=O)N[C@@H](Cc2c[nH]c3ccccc23)C(=O)O)cc1 [Ex.32 (CR462), N-p-methoxy-carbobenzoxy-L-tryptophane] : is its LD50 strictly below 1000 mg/kg? class 1

Record N#Cc1ccc(COC(=O)N[C@@H](Cc2c[nH]c3ccccc23)C(=O)O)cc1 [Ex. 8 (CR496), N-p-cyano-carbobenzoxy-L-tryptophane] : is its LD50 strictly below 1000 mg/kg? class 0

Record CN(C)CCOC(=O)[C@H](Cc1c[nH]c2ccccc12)NC(=O)OCc1ccc(Cl)cc1 [Ex.48 (CR583), hydrochloride] : is its LD50 strictly below 1000 mg/kg? class 1

---

# Tested on: gastric secretion
# test.protocol: Anti-secretive activity in the rat by gastric stimulus, oral
# Format: in vivo
# test.conditions: oral (Table 1), read-out: Activity B: anti-secretive activity ED50
recorded.metric: ED50
Please answer using a numeric value trailed by its unit.

| compound | ED50 |
| --- | --- |
| CCOC(=O)c1ccc(NC(=O)[C@H](Cc2c[nH]c3ccccc23)NC(=O)c2ccccc2)cc1 | 460 mg/kg |
| Cc1ccc(COC(=O)N[C@@H](Cc2c[nH]c3ccccc23)C(=O)O)cc1 | 125 mg/kg |
| COC(=O)Cc1ccc(NC(=O)[C@H](Cc2c[nH]c3ccccc23)NC(=O)c2ccccc2)cc1 | 180 mg/kg |
| O=C(O)Cc1ccc(NC(=O)[C@H](Cc2c[nH]c3ccccc23)NC(=O)c2ccccc2)cc1 | 186 mg/kg |
| CCc1ccc(COC(=O)N[C@@H](Cc2c[nH]c3ccccc23)C(=O)O)cc1 | 117 mg/kg |
| O=C(NC(Cc1c[nH]c2ccccc12)C(=O)O)OCc1ccc(Cl)cc1 (racemic) | 130 mg/kg |
| O=C(N[C@@H](Cc1c[nH]c2ccccc12)C(=O)O)OCc1c(Cl)cccc1Cl | 108 mg/kg |
| O=C(N[C@@H](Cc1c[nH]c2ccccc12)C(=O)O)OCc1ccc(Cl)cc1Cl | 97 mg/kg |

I have 6 compounds here; please give me ED50 for each one.
1. O=C(N[C@@H](Cc1c[nH]c2ccccc12)C(=O)O)c1ccc(C(F)(F)F)cc1
2. COc1ccc(C(=O)N[C@@H](Cc2c[nH]c3ccccc23)C(=O)O)cc1
3. O=C(N[C@@H](Cc1c[nH]c2ccccc12)C(=O)O)OCc1ccc(Cl)c(Cl)c1
4. O=C(N[C@@H](Cc1c[nH]c2ccccc12)C(=O)Nc1ccc(C(=O)OCc2ccccc2)cc1)OCc1ccccc1
5. O=C(N[C@@H](Cc1c[nH]c2ccccc12)C(=O)O)c1ccc(Cl)cc1
6. O=C(Cc1ccc(NC(=O)[C@H](Cc2c[nH]c3ccccc23)NC(=O)OCc2ccccc2)cc1)OCc1ccccc1

110 mg/kg
494 mg/kg
104 mg/kg
520 mg/kg
110 mg/kg
350 mg/kg

---

# Test system: gastric secretion
# test.protocol: Anti-secretive activity in the rat by gastric stimulus, oral
# Assay type: in vivo
# test.conditions: oral (Table 1), read-out: Activity B: anti-secretive activity ED50
recorded.metric: ED50 (mg/kg)
Numbers only, in mg/kg.

| compound | observed.value |
| --- | --- |
| O=C(Cc1ccc(Cl)cc1)N[C@@H](Cc1c[nH]c2ccccc12)C(=O)O [Ex.47 (CR584), N-p-chlorophenylacetyl-L-tryptophane] | 270 |
| O=C(N[C@@H](Cc1c[nH]c2ccccc12)C(=O)O)c1ccc([N+](=O)[O-])cc1 [Ex.29 (CR502)] | 270 |

Now for the compound whose ED50 we want.
For gastric secretion, provide ED50 of N#Cc1ccc(COC(=O)N[C@@H](Cc2c[nH]c3ccccc23)C(=O)O)cc1 [Ex. 8 (CR496), N-p-cyano-carbobenzoxy-L-tryptophane] please. 340

---

# test.protocol: Acute toxicity (DL50) in the mouse
# Type: in vivo
# test.conditions: in vivo, iv, iv (Table 1), read-out: DL50 value
Give measured LD50 for each item. Keep answers brief.

Answered cases to consult:
| molecule | observed.value |
| --- | --- |
| Cc1ccc(COC(=O)N[C@@H](Cc2c[nH]c3ccccc23)C(=O)O)cc1 | 320 mg/kg |
| CCOC(=O)c1ccc(NC(=O)[C@H](Cc2c[nH]c3ccccc23)NC(=O)OCc2ccccc2)cc1 | 1000 mg/kg |
| O=C(N[C@@H](Cc1c[nH]c2ccccc12)C(=O)O)OCc1ccccc1Cl | 640 mg/kg |
| O=C(N[C@@H](Cc1c[nH]c2ccccc12)C(=O)Nc1ccc(C(=O)O)cc1)OCc1ccccc1 | 460 mg/kg |
| O=C(N[C@@H](Cc1c[nH]c2ccccc12)C(=O)O)OCc1c(Cl)cccc1Cl | 268 mg/kg |

I have 2 compounds here; please give me LD50 for each one.
1. O=C(N[C@@H](Cc1c[nH]c2ccccc12)C(=O)O)OCc1ccc(C(F)(F)F)cc1
2. O=C(N[C@@H](Cc1c[nH]c2ccccc12)C(=O)O)OCc1ccc([N+](=O)[O-])cc1

175 mg/kg
700 mg/kg

---

# Tested on: gastric secretion
# test.protocol: Anti-secretive activity in the rat by gastric stimulus, oral
# Format: in vivo
# test.conditions: oral (Table 1), read-out: Activity B: anti-secretive activity ED50
Hi! Just check whether ED50 is below 200 mg/kg. Below gives Fulfilled, equal or above gives Not fulfilled.

Study these solved cases before continuing.
| molecule | label |
| --- | --- |
| O=C(N[C@@H](Cc1c[nH]c2ccccc12)C(=O)O)c1ccc(F)cc1 [Ex.25 (CR506), N-p-fluoro-benzoyl-L-tryptophane] | Not fulfilled |
| O=C(N[C@@H](Cc1c[nH]c2ccccc12)C(=O)O)OCc1ccccc1Cl [Ex. 3 (CR460), N-o-chloro-carbobenzoxy-L-tryptophane] | Not fulfilled |

Record O=C(N[C@@H](Cc1c[nH]c2ccccc12)C(=O)O)OCc1cccc(Cl)c1 [Ex. 2 (CR527), N-m-chloro-carbobenzoxy-L-tryptophane] : is its ED50 strictly below 200 mg/kg? Fulfilled

Record O=C(N[C@@H](Cc1c[nH]c2ccccc12)C(=O)Nc1ccc(C(=O)Oc2ccccc2)cc1)OCc1ccccc1 [Ex.35 (CR411)] : is its ED50 strictly below 200 mg/kg? Not fulfilled

Record Cc1ccc(C(=O)NC(Cc2c[nH]c3ccccc23)C(=O)O)cc1 (racemic) [Ex.23 (CR555), N-p-toluyl-DL-tryptophane] : is its ED50 strictly below 200 mg/kg? Fulfilled

Record O=C(O)c1ccc(NC(=O)[C@H](Cc2c[nH]c3ccccc23)NC(=O)c2ccccc2)cc1 [Ex.42 (CR404)] : is its ED50 strictly below 200 mg/kg? Not fulfilled

Record O=C(O)c1ccc(C(=O)N[C@@H](Cc2c[nH]c3ccccc23)C(=O)O)cc1 [Ex.27 (CR508), N-p-carboxy-benzoyl-L-tryptophane] : is its ED50 strictly below 200 mg/kg? Not fulfilled

---

# System: gastric secretion
# test.protocol: Anti-secretive activity in the rat by gastric stimulus, oral
# Format: in vivo
# test.conditions: oral (Table 1), read-out: Activity B: anti-secretive activity ED50
Give measured ED50 for each item. Keep answers brief.
Give bare numbers, in mg/kg.

| molecule | test.target | ED50 [mg/kg] |
| --- | --- | --- |
| O=C(N[C@@H](Cc1c[nH]c2ccccc12)C(=O)O)OCc1cccc2ccccc12 | gastric secretion | 94 |
| O=C(N[C@@H](Cc1c[nH]c2ccccc12)C(=O)O)c1ccc(Br)cc1 | gastric secretion | 85 |
| CCN(CC)CCOC(=O)[C@H](Cc1c[nH]c2ccccc12)NC(=O)c1ccc(C)cc1 | gastric secretion | 120 |

Now for the compound whose ED50 we want.
Requested read-out: ED50. Entry: Cc1ccc(C(=O)N[C@H](Cc2c[nH]c3ccccc23)C(=O)O)cc1 190

---

# test.protocol: Acute toxicity (DL50) in the mouse
# Assay type: in vivo
# test.conditions: in vivo, iv, iv (Table 1), read-out: DL50 value
recorded.metric: LD50 (mg/kg)
Answers are plain numbers, in mg/kg.

Answered cases to consult:
| molecule | LD50, mg/kg |
| --- | --- |
| COC(=O)Cc1ccc(NC(=O)[C@H](Cc2c[nH]c3ccccc23)NC(=O)OCc2ccccc2)cc1 | 1000 |
| O=C(N[C@@H](Cc1c[nH]c2ccccc12)C(=O)O)OCc1ccc(Cl)cc1 | 240 |
| O=C(Cc1ccc(NC(=O)[C@H](Cc2c[nH]c3ccccc23)NC(=O)OCc2ccccc2)cc1)OCc1ccccc1 | 1000 |
| O=C(N[C@@H](Cc1c[nH]c2ccccc12)C(=O)Nc1ccc(C(=O)OCc2ccccc2)cc1)OCc1ccccc1 | 1000 |
| O=C(N[C@@H](Cc1c[nH]c2ccccc12)C(=O)O)OCc1ccc(Cl)c(Cl)c1 | 208 |
| O=C(N[C@@H](Cc1c[nH]c2ccccc12)C(=O)O)OCc1ccc(Cl)cc1Cl | 170 |

Now for the compound whose LD50 we want.
Requested read-out: LD50. Entry: O=C(O)Cc1ccc(NC(=O)[C@H](Cc2c[nH]c3ccccc23)NC(=O)OCc2ccccc2)cc1 980
